# Tested on: B. divergens
# assay.method.text: In vitro growth inhibition, Babesia fluorescent (SYBR Green I) assay
# Type: cell-based
# experimental.conditions: 4 days culture, mean of triplicate experiments
# Experimental: Babesia parasite was incubated and maintained at 37 °C in a humidifying chamber under 5% CO2, 5% O2, and 90% N2 atmosphere using a microaerophilic stationary-phase culture for conducting the in vitro experiment. […]
pIC50: −log10 of the molar value.
quantity.kind: pIC50

{"compound": "CC(=O)NCC(=O)O.CC(=O)NCC(=O)O.N=C(N)c1ccc(N=NNc2ccc(C(=N)N)cc2)cc1 [DA, diminazene aceturate]", "recorded.value": 6.37}

----------
# Tested on: B. caballi
# assay.method.text: In vitro growth inhibition, Babesia fluorescent (SYBR Green I) assay
# Assay type: cell-based
# experimental.conditions: 4 days culture, mean of triplicate experiments
# Procedure: Babesia parasite was incubated and maintained at 37 °C in a humidifying chamber under 5% CO2, 5% O2, and 90% N2 atmosphere using a microaerophilic stationary-phase culture for conducting the in vitro experiment. […]
quantity.kind: IC50 (nM)

{"compound": "CC(=O)NCC(=O)O.CC(=O)NCC(=O)O.N=C(N)c1ccc(N=NNc2ccc(C(=N)N)cc2)cc1 [DA, diminazene aceturate]", "recorded.value": 20}

----------
# Test system: NIH/3T3 cells
# assay.method.text: Cytotoxicity assay (CCK-8 cell viability)
# Assay type: cell-based, mouse
# experimental.conditions: EC50 NIH/3T3 / IC50 T. equi
quantity.kind: Selective Index NIH/3T3

{"input.smiles": "CC(C)/N=c1\\cc2n(-c3ccc(Cl)cc3)c3ccccc3nc-2cc1Nc1ccc(Cl)cc1", "quantity.kind": "Selective Index NIH/3T3", "recorded.value": "˃34.7"}
{"input.smiles": "O=C1C(O)=C([C@H]2CC[C@H](c3ccc(Cl)cc3)CC2)C(=O)c2ccccc21", "quantity.kind": "Selective Index NIH/3T3", "recorded.value": "˃1052"}
{"input.smiles": "COC(=O)c1c(C)cc(OC(=O)c2c(C)cc(O)c(C=O)c2O)c(C)c1O", "quantity.kind": "Selective Index NIH/3T3", "recorded.value": 9}

----------
# System: NIH/3T3 cells
# assay.method.text: Cytotoxicity assay (CCK-8 cell viability)
# Format: cell-based, mouse
# experimental.conditions: Mus musculus, NIH3T3, 24 h, read-out: EC50 NIH/3T3
quantity.kind: EC50 (µM)

{"input.smiles": "COC(=O)c1c(C)cc(OC(=O)c2c(C)cc(O)c(C=O)c2O)c(C)c1O", "value.unit": "µM", "recorded.value": 638}

----------
# System: HFFs
# assay.method.text: Cytotoxicity assay (CCK-8 cell viability)
# Type: cell-based, human
# experimental.conditions: EC50 HFFs / IC50 B. bovis

{"input.smiles": "CC(C)/N=c1\\cc2n(-c3ccc(Cl)cc3)c3ccccc3nc-2cc1Nc1ccc(Cl)cc1", "Selective Index HFFs": "˃12.1"}
{"input.smiles": "COC(=O)c1c(C)cc(OC(=O)c2c(C)cc(O)c(C=O)c2O)c(C)c1O", "Selective Index HFFs": 7.6}
{"input.smiles": "O=C1C(O)=C([C@H]2CC[C@H](c3ccc(Cl)cc3)CC2)C(=O)c2ccccc21", "Selective Index HFFs": "˃2564"}

Source listed as paper PMC7167990.
